System: large crabgrass
assay: Test C pre-/postemergence herbicide test
Type: in vivo, Digitaria sanguinalis
reported conditions: 62 g ai/ha; preemergence
Listing: Plant response rating (0 = no effect, 100 = complete control), Crabgrass, Large of selected compounds
Could you respond with only the numeric value?

Recorded Plant response rating (0 = no effect, 100 = complete control), Crabgrass, Large, per entry:
# mol, observed
records = [
    ("CCn1nc(C(C)(C)C)cc1C(=O)Nc1cccc(C(C)=NO)c1", 100),
    ("CCn1nc(C(C)(C)C)cc1C(=O)Nc1cc(C(=O)N(C)C)ccc1F", 75),
    ("CCC(=NO)c1cccc(NC(=O)c2cc(C(C)(C)C)nn2C)c1", 70),
    ("CC(=NO)c1cccc(NC(=O)c2cc(C(C)(C)C)nn2C)c1", 100),
]

// below: Plant response rating (0 = no effect, 100 = complete control), Crabgrass, Large requested for another compound
Exercise: Consider the compound CCn1nc(C(C)(C)C)cc1C(=O)Nc1cc(C#N)ccc1F . State its measured Plant response rating (0 = no effect, 100 = complete control), Crabgrass, Large.
Key: 0

---

Test system: cocklebur
assay: Test C pre-/postemergence herbicide test
Type: in vivo, Xanthium strumarium
reported conditions: postemergence; 62 g ai/ha; scale 0 to 100
assay readout: Plant response rating, Cocklebur

Exercise: Consider the compound CCn1nc(C(C)(C)C)cc1C(=O)Nc1cccc(OC(F)(F)C(F)F)c1 [Compound 333] . State its measured Plant response rating, Cocklebur.
Key: 0

Exercise: Consider the compound CCn1nc(C(C)(C)C)cc1C(=O)Nc1cccc(C(C)=NO)c1 [Compound 108] . State its measured Plant response rating, Cocklebur.
Key: 70

Exercise: Consider the compound CCn1nc(C(C)(C)C)cc1C(=O)Nc1cccc(OC(F)(F)F)c1 [Compound 272] . State its measured Plant response rating, Cocklebur.
Key: 15

Exercise: Consider the compound C=CCOC(=O)c1cccc(NC(=O)c2cc(C(C)(C)C)nn2CC)c1 [Compound 85] . State its measured Plant response rating, Cocklebur.
Key: 20

Exercise: Consider the compound CCn1nc(C(C)(C)C)cc1C(=O)Nc1cccc(C(=O)OC)c1 [Compound 81] . State its measured Plant response rating, Cocklebur.
Key: 55

---

System: small flower umbrella sedge
assay: Test B flooded paddy test
Type: in vivo, Cyperus difformis
reported conditions: 1000 g ai/ha, scale 0 to 100 (0 no effect, 100 complete control)
Method: At the same time, plants selected from these crop and weed species and also blackgrass (Alopecurus myosuroides Huds.), wheat (Triticum aestivum L.) and wild oat (Avena fatua L.) were treated with postemergence applications of test chemicals formulated in the same manner. […] Treated plants and controls were maintained in a greenhouse for 13 to 15 days, after which time all species were compared to controls and visually evaluated. […]
The threshold is inclusive: Sedge, Umbrella plant response rating of exactly 80 counts as Criterion met; values below receive Criterion not met.

Worked examples, 3 molecules total:
# molecule, class name
data = [
    ("CCN1N=C(C(C)(C)C)CC1C(=O)Nc1cc(C(=O)N2CCCCC2)ccc1F (racemic) [Compound 331]", "Criterion met"),
    ("CCOc1ccc(F)c(NC(=O)c2cc(C(C)(C)C)nn2CC)c1 [Compound 348]", "Criterion not met"),
    ("CCn1nc(C(C)(C)C)cc1C(=O)Nc1cc(C(=O)OC(C)C)c(F)cc1F [Compound 248]", "Criterion not met"),
]

Exercise: Threshold query (Sedge, Umbrella plant response rating >= 80) on C=CCN(CC=C)C(=O)c1ccc(F)c(NC(=O)c2nn(C(C)(C)C)nc2CC)c1 [Compound 387]
Key: Criterion not met

Exercise: Threshold query (Sedge, Umbrella plant response rating >= 80) on CCC1=NN(C(C)(C)C)CC1C(=O)Nc1cc(C(=O)N(C)CC)ccc1F (racemic) [Compound 342]
Key: Criterion not met

Exercise: Threshold query (Sedge, Umbrella plant response rating >= 80) on COC(=O)c1cccc(NC(=O)c2cc(C(C)(C)C)nn2C)n1 [Compound 312]
Key: Criterion not met

---

Listing: Plant response rating (0 to 100 scale), Velvetleaf of selected molecules
Test system: velvetleaf
assay: Test B pre-/postemergence herbicide test
Type: in vivo, Abutilon theophrasti
reported conditions: 125 g ai/ha; 0 is no effect, 100 is complete control; preemergence
Could you respond with only the numeric value?

# molecule, observed
records = [
    ("CCc1nn(C(C)(C)C)nc1C(=O)Nc1cccc(C(=O)N2CCCCC2)c1", 10),
]

Exercise: Jot down Plant response rating (0 to 100 scale), Velvetleaf (velvetleaf) of C=CCOc1cccc(NC(=O)c2cc(C(C)(C)C)nn2CC)c1 .
Key: 0

Exercise: Jot down Plant response rating (0 to 100 scale), Velvetleaf (velvetleaf) of CCn1nc(C(C)(C)C)cc1C(=O)Nc1cccc(OC(F)(F)C(F)F)c1 .
Key: 10

Exercise: Jot down Plant response rating (0 to 100 scale), Velvetleaf (velvetleaf) of CCc1nn(C(C)C)nc1C(=O)Nc1cccc(C(=O)N2CC=CC2)c1 .
Key: 0

---

Listing: Morningglory plant response rating (0 to 100 scale) of selected compounds
Test system: morningglory
assay: Test B pre-/postemergence herbicide test
Type: in vivo, Ipomoea coccinea
reported conditions: 125 g ai/ha; 0 = no effect, 100 = complete control; preemergence
Could you respond with only the numeric value?

Recorded Morningglory plant response rating (0 to 100 scale), per entry:
# mol, observed
records = [
    ("CCNC(=O)c1cncc(NC(=O)c2cc(C(C)(C)C)nn2CC)n1", 0),
    ("CCN(C)C(=O)c1cccc(NC(=O)c2sc(C(C)(C)C)nc2C)c1", 0),
    ("Cc1nc(C(C)(C)C)sc1C(=O)Nc1cccc(C(=O)NCC(F)(F)F)c1", 0),
    ("CCc1cn(C(C)(C)C)nc1C(=O)Nc1cc(C(=O)N(C)CC)ccn1", 10),
]

// below: Morningglory plant response rating (0 to 100 scale) requested for another compound
Exercise: Consider the compound CCN(CC)C(=O)c1cccc(NC(=O)c2cn(C(C)(C)C)nc2C)c1 . State its measured Morningglory plant response rating (0 to 100 scale).
Key: 10

---

System: barnyardgrass
assay: Test A pre-/postemergence herbicide test
Format: in vivo, Echinochloa crus-galli
reported conditions: Preemergence, 2000 g ai/ha; 0 to 100 scale, 0 no effect, 100 complete control
Labelling: Barnyardgrass plant response rating reported below 40 becomes label 1; at or above becomes label 0.

# compound, class name
records = [
    ("CCn1nc(C(C)(C)C)cc1C(=O)Nc1ccc(F)c(C(=O)NCCF)c1 [Compound 60]", "label 0"),
    ("CCCCn1nc(C(C)(C)C)cc1C(=O)Nc1cccc(C(=O)N(CC)CC)c1 [Compound 40]", "label 1"),
    ("CCOC(=O)c1cccc(NC(=O)c2cc(C(C)(C)C)nn2CCF)c1 [Compound 79]", "label 1"),
    ("CCn1nc(C(C)(C)C)cc1C(=O)Nc1cccc(C(=O)OC)c1C [Compound 87]", "label 0"),
]

Turning now to a further record.
Exercise: Input CCn1nc(C(C)(C)C)cc1C(=O)Nc1cccc(C(=O)NOC)c1 [Compound 67] ; condition: Barnyardgrass plant response rating strictly below 40. Does it hold?
Key: label 1

---

Test system: corn
assay: Test C pre-/postemergence herbicide test
Type: in vivo, Zea mays
reported conditions: postemergence; 62 g ai/ha; scale 0 to 100
assay readout: Plant response rating, Corn
Could you respond with only the numeric value?

Recorded Plant response rating, Corn, per entry:
# mol, Plant response rating, Corn
data = [
    ("CCn1nc(C(C)(C)C)cc1C(=O)Nc1cccc(OC(F)(F)F)c1", 10),
    ("CCn1nc(C(C)(C)C)cc1C(=O)Nc1cccc(C(=O)NC2CC2)n1", 5),
    ("CCn1nc(C(C)(C)C)cc1C(=O)Nc1cccc(C#N)c1", 0),
    ("C=CCOC(=O)c1cccc(NC(=O)c2cc(C(C)(C)C)nn2CC)c1", 30),
]

Exercise: Consider the compound C#CCOC(=O)c1cccc(NC(=O)c2cc(C(C)(C)C)nn2CC)c1 . State its measured Plant response rating, Corn.
Key: 0

---

Tested on: morningglory
assay: Test B pre-/postemergence herbicide test
Assay type: in vivo, Ipomoea coccinea
reported conditions: 500 g ai/ha; visual rating, 0 = no effect, 100 = complete control; preemergence
Procedure: […] At the same time, plants selected from these crop and weed species and also blackgrass (Alopecurus myosuroides Huds.), wheat (Triticum aestivum L.) and wild oat (Avena fatua L.) were treated with postemergence applications of test chemicals formulated in the same manner. […] Treated plants and controls were maintained in a greenhouse for 13 to 15 days, after which time all species were compared to controls and visually evaluated. […]
assay readout: Plant response rating, Morningglory

Recorded Plant response rating, Morningglory, per entry:
# compound, observed
data = [
    ("CCc1cn(C(C)(C)C)nc1C(=O)Nc1cccc(C(=O)N(C)C)n1", 0),
    ("CCn1nc(C(C)(C)C)cc1C(=O)Nc1nc(C(=O)N(C)C)ccc1F", 0),
    ("CCn1nc(C2(C)CC2)cc1C(=O)Nc1cccc(C(=O)N2CC=CC2)c1", 10),
]

Exercise: Consider the compound CCn1nc(C(C)(C)C)cc1C(=O)Nc1nc(C(=O)OC)ccc1OC . State its measured Plant response rating, Morningglory.
Key: 0

Exercise: Consider the compound CCn1nc(C(C)(C)C)cc1C(=O)Nc1ccnc(C(=O)NCCF)c1 . State its measured Plant response rating, Morningglory.
Key: 0

Exercise: Consider the compound CCCOC(=O)c1cc(NC(=O)c2cc(C(C)(C)C)nn2CC)c(F)cc1F . State its measured Plant response rating, Morningglory.
Key: 10

Exercise: Consider the compound CCn1nc(C(C)(C)C)cc1C(=O)Nc1cc(C(=O)N2CCCC2)ccc1F . State its measured Plant response rating, Morningglory.
Key: 10

Exercise: Consider the compound CCc1cn(C(C)(C)C)nc1C(=O)Nc1cc(C(=O)N(C)CC)ccn1 . State its measured Plant response rating, Morningglory.
Key: 10

Exercise: Consider the compound CCc1nc(C(C)(C)C)sc1C(=O)Nc1cccc(C(=O)NCC2CC2)n1 . State its measured Plant response rating, Morningglory.
Key: 20

Exercise: Consider the compound CCc1cn(C(C)(C)C)nc1C(=O)Nc1cc(C(=O)N(C)C)ccn1 . State its measured Plant response rating, Morningglory.
Key: 20
